Target: T1, human IFP35 protein (human, UniProt P80217 1-286, limits assumed)
T1 construct: also called interferon-induced protein 35; IFI35
T1 chain: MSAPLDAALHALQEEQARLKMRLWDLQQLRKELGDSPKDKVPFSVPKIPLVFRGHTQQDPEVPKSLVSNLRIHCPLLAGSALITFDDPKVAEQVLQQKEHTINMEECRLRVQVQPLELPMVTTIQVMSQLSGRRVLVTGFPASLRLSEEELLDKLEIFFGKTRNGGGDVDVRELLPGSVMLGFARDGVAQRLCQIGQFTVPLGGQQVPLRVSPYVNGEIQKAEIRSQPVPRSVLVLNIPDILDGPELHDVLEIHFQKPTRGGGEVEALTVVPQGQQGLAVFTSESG
Experiment: affinity kinetics (fortebio), antibody loaded
Rule: measured koff below 0.0005 s⁻¹ gets TRUE; anything equal to or greater than 0.0005 s⁻¹ gets FALSE.

stdin: Could you please tell me whether koff recorded for AE001-8 (antibody, human IgG1, V domains shown, Human IgG1; CDR mutant of AE001-H3+L3; also called AE001-6Hc + 8Lc; AE001-6HC + 8LC) VH: QVQLVQSGAEVKKPGASVKVSCKASGYTFTNYGMNWVRQAPGQGLEWMGWINTYTGEPTVAQKFQGRFTFTLDTSTSTAYLELSSLRNEDTAVYFCARYGYSWAMDYWGQGTSVTVSS VL: DIQMTQSPSSLSASVGDRVTITCQASSSVSYMHWYQQKPGKAPKRLIYDTSKLASGVPSRFSGSGSGTDYTLTISSLQPEDIATYYCQQWSPLPPITFGAGTKLEIK is less than 0.0005 s⁻¹?
stdout: TRUE

stdin: Given AE001-H3+L3 (antibody, V domains shown, The same doubt about the 'constant region' label applies as for AE001-H1+L1; also called AE001H3 + AE001L3; humanized antibody) VH: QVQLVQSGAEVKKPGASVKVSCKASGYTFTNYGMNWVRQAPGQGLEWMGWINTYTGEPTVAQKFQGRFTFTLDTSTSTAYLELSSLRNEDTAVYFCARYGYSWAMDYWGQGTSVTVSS VL: DIQMTQSPSSLSASVGDRVTITCQASSSVSYMHWYQQKPGKAPKRLIYDTSKLASGVPSRFSGSGSGTDYTLTISSLQPEDIATYYCQQWSSNPPITFGAGTKLEIK , is recorded koff strictly lower than 0.0005 s⁻¹?
stdout: FALSE

stdin: I'd appreciate it if you could check whether AE001-7 (antibody, human IgG1, V domains shown, Human IgG1; CDR mutant of AE001-H3+L3; also called AE001-6Hc + 7Lc; AE001-6HC + 7LC) VH: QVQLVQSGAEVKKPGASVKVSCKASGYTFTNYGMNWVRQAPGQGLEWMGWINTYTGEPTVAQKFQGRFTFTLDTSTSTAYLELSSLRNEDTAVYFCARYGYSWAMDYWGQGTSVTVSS VL: DIQMTQSPSSLSASVGDRVTITCQASSSVSYMHWYQQKPGKAPKRLIYDTSKLASGVPSRFSGSGSGTDYTLTISSLQPEDIATYYCQQWSSNSWSTFGAGTKLEIK has koff smaller than 0.0005 s⁻¹.
stdout: FALSE

stdin: koff under 0.0005 s⁻¹? Item: AE001-9 (antibody, human IgG1, V domains shown, Human IgG1; CDR mutant of AE001-H3+L3; also called AE001-6Hc + 9Lc; AE001-6HC + 9LC) VH: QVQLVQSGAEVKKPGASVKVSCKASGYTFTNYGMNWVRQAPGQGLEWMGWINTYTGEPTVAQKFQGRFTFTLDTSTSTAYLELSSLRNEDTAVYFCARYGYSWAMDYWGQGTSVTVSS VL: DIQMTQSPSSLSASVGDRVTITCQASSSVSYMHWYQQKPGKAPKRLIYDTSKLASGVPSRFSGSGSGTDYTLTISSLQPEDIATYYCQQWSPRPPITFGAGTKLEIK
stdout: TRUE
